- Assay target: Aldose reductase II (Homo sapiens, UniProt P15121)
# IC50 binned as category 1 = under 4 µM, category 2 = from 4 µM up to 50 µM, category 3 = 50 µM and over

See these solved cases before continuing.
Structure string: COc1cc(C(=O)N2CCc3c(n(CC(=O)O)c4ccccc34)C2=O)cc(OC)c1OC
Class: category 2

Structure string: O=C(O)Cn1c2c(c3ccccc31)CCN(c1ccccc1)C2=S
Class: category 2

Structure string: O=C(O)Cn1c2c(c3ccccc31)CCN(C(=O)c1ccccc1)C2=O
Class: category 3

Structure string: O=C(O)Cn1c2c(c3ccccc31)CCSC2=O
Class: category 1

Structure string: O=C(O)Cn1c2c(c3ccccc31)CCN(C(=O)c1ccc(Br)cc1F)C2=O
Class: category 3

Structure string: O=C(O)Cn1c2c(c3ccc(Cl)cc31)CCN(Cc1ccccc1)C2=S
Class: category 1

Structure string: O=C(O)Cn1c2c(c3cc(Cl)ccc31)CCSC2=O
Class: category 1

Structure string: CC(C)(C)OC(=O)Cn1c2c(c3cc(F)ccc31)CCN(Cc1ccccc1)C2=S
Class: category 2

--- query ---
Class (by measured IC50) for O=C(O)Cn1c2c(c3c(F)cc(F)cc31)CCN(Cc1ccccc1)C2=S
category 1
